system name: UniProt:Q8ILY1
test name: Fluorescence-based high-throughput DNA polymerase assay (molecular beacon), primary screen and dose-response
Format: biochemical
condition set: DRC-2; 180'; concentration 80
test readout: % inhibition apPOL 180' (%)

{"columns": ["molecule", "test readout", "value"],
 "data": [
  ["O=C(O)c1ccc(COc2cc([N+](=O)[O-])cc3cccnc23)cc1", "% inhibition apPOL 180'", 76],
  ["O=C1C(=Cc2ccncc2)Oc2c1ccc1c2CN(Cc2ccc3c(c2)OCO3)CO1", "% inhibition apPOL 180'", 35],
  ["Nc1c(S(=O)(=O)O)cc(Nc2ccccc2)c2c1C(=O)c1ccccc1C2=O", "% inhibition apPOL 180'", 86],
  ["CSC1=C(C#N)C(=C(C#N)C#N)NC(c2ccccc2)=N1 [Molecule 2, CSc1nc([nH]c(=C(C#N)C#N)c1C#N)c1ccccc1]", "% inhibition apPOL 180'", 80],
  ["CC(NC(=O)Cc1cc(=O)[nH]c(SCc2cccc(Cl)c2)n1)c1ccccc1 (stereo not shown)", "% inhibition apPOL 180'", 70],
  ["Cl.NC(CO)C(=O)NNCc1ccc(O)c(O)c1O (stereo not shown)", "% inhibition apPOL 180'", 72],
  ["O=c1cc(CN2CCCCC2)c2cc3c(cc2o1)OCO3", "% inhibition apPOL 180'", 64],
  ["NS(=O)(=O)c1ccc(NC(=O)c2ccc(N3C(=O)CCC3=O)cc2)cc1", "% inhibition apPOL 180'", 72],
  ["CCCCc1ccc(NC(=O)CSc2nc(O)c(C#N)c(C3CCCCC3)n2)c(C)c1", "% inhibition apPOL 180'", 86],
  ["O=C1C(=Cc2ccccc2O)Oc2ccc(O)cc21", "% inhibition apPOL 180'", 63],
  ["O=C(Cn1ccc2c(=O)[nH]ccc21)Nc1cccc(Cl)c1 [Molecule 23, O=C(Cn1ccc2c1cc[nH]c2=O)Nc1cccc(c1)Cl]", "% inhibition apPOL 180'", 65],
  ["Cc1nn(CC(=O)NCCSCc2ccco2)c(C)c1Br", "% inhibition apPOL 180'", 55],
  ["O=C(NNC(=O)c1ccc(Cl)cc1)C(=O)NNC(=O)c1ccc(Cl)cc1", "% inhibition apPOL 180'", 62],
  ["Cc1cccc(NC(=O)Cn2ccc3c(=O)[nH]ccc32)c1C [Molecule 11, O=C(Cn1ccc2c1cc[nH]c2=O)Nc1cccc(c1C)C]", "% inhibition apPOL 180'", 77],
  ["O=C(Cn1ccc2c(=O)[nH]ccc21)Nc1cc(F)ccc1F [Molecule 42, O=C(Cn1ccc2c1cc[nH]c2=O)Nc1cc(F)ccc1F]", "% inhibition apPOL 180'", 62],
  ["O=C(O)c1cc([N+](=O)[O-])c(N2CCN(c3cccc(C(F)(F)F)c3)CC2)c([N+](=O)[O-])c1", "% inhibition apPOL 180'", 75]
]}

###

system name: P. falciparum apicoplast DNA polymerase (Pf-apPOL) (Plasmodium falciparum, UniProt Q8ILY1)
Sequence (Q8ILY1 entry or part of it): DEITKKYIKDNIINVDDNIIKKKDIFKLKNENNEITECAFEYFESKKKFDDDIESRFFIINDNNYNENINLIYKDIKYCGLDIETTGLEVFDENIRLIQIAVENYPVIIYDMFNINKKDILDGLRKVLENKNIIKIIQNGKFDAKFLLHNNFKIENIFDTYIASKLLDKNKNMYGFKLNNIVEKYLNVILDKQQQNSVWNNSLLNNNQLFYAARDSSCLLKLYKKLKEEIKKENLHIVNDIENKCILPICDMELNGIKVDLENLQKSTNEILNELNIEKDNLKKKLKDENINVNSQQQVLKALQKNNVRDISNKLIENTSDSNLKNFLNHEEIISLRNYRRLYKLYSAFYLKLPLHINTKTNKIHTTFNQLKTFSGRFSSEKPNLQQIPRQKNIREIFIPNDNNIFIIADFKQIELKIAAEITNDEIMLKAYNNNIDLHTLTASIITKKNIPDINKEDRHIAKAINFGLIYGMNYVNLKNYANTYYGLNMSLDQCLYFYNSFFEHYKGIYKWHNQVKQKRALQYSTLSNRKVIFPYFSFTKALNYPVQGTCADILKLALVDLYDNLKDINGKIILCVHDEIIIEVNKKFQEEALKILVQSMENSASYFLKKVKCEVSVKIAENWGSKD
test name: Fluorescence-based high-throughput DNA polymerase assay (molecular beacon), primary screen and dose-response;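 note: test concentration in µM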
Assay type: biochemical
condition set: conc 20 (unit not given); 180'; DRC-2

{"columns": ["compound", "system name", "% inhibition apPOL 180', %"],
 "data": [
  ["CC1=NNC(=O)C1Oc1ccc(Cl)cc1Cl (stereo not shown)", "P. falciparum apicoplast DNA polymerase (Pf-apPOL) (Plasmodium falciparum, UniProt Q8ILY1)", 9],
  ["COc1ccccc1CCC(=O)N1CCc2c(nc3cc(-c4ccccc4)[nH]n3c2=O)C1", "P. falciparum apicoplast DNA polymerase (Pf-apPOL) (Plasmodium falciparum, UniProt Q8ILY1)", 59],
  ["O=C(O)CC1SC(c2ccc3c(c2)OCO3)=NC1=O (stereo not shown)", "P. falciparum apicoplast DNA polymerase (Pf-apPOL) (Plasmodium falciparum, UniProt Q8ILY1)", 7],
  ["O=C(Nc1ncc([N+](=O)[O-])s1)c1ccc2c(c1)C(=O)N(N1C(=O)c3ccccc3C1=O)C2=O", "P. falciparum apicoplast DNA polymerase (Pf-apPOL) (Plasmodium falciparum, UniProt Q8ILY1)", 36]
]}
